Tested on: Blumeria graminis f. sp. tritici
Assay: Antifungal activity against Blumeria graminis f. sp. tritici infected seven-day-old wheat seedlings assessed as disease control at 1.56 mg/l after 7 days relative to control
Assay type: functional
# Activity per record follows
Response body: numeric value in %, unit text excluded.

CO/C=C(/C(=O)OC)c1ccccc1COc1c(C)c(-c2ccccc2)nn1C ... 55
CCOc1ccc(-c2nn(C)c(OCc3ccccc3/C(=C\OC)C(=O)OC)c2C)cc1 ... 65
CO/C=C(/C(=O)OC)c1ccccc1COc1cc(-c2ccc(OC)cc2)nn1C ... 0
CO/C=C(/C(=O)OC)c1ccccc1COc1cc(-c2ccccc2OC)nn1C ... 35

Note: attention shifts to another entry.
QUERY: For Blumeria graminis f. sp. tritici, provide Activity of "CO/C=C(/C(=O)OC)c1ccccc1COc1c(C)c(-c2ccc(OCC(F)(F)F)cc2)nn1C" please.
RESULT: 65

* * *

Tested on: Tetranychus cinnabarinus
Test: Acaricidal activity against Tetranychus cinnabarinus (carmine spider mite) in kidney bean plants assessed as mortality at 38 mg/l after 48 hr relative to control
Type: functional
The entries below are paired with their reported Activity.
// note: answer is a bare numeric in %

CO/C=C(/C(=O)OC)c1ccccc1COc1c(C)c(-c2ccc(C)c(C)c2)nn1C ... 0
CO/C=C(/C(=O)OC)c1ccccc1COc1cc(-c2ccc(Br)cc2)nn1C ... 57

QUERY: Query the reported Activity for Tetranychus cinnabarinus; item: "CO/C=C(/C(=O)OC)c1ccccc1COc1c(C)c(-c2ccc(OC)cc2)nn1C"
RESULT: 0

QUERY: Can you handle "CO/C=C(/C(=O)OC)c1ccccc1COc1c(C)c(-c2ccccc2)nn1C" next?
RESULT: 0

QUERY: And "CCc1ccc(-c2nn(C)c(OCc3ccccc3/C(=C\OC)C(=O)OC)c2C)cc1" ?
RESULT: 30

QUERY: Then "CO/C=C(/C(=O)OC)c1ccccc1COc1c(C)c(-c2cc(C)ccc2C)nn1C" ?
RESULT: 0

QUERY: Then what about the compound "CO/C=C(/C(=O)OC)c1ccccc1COc1cc(-c2ccc(C)cc2C)nn1C" ?
RESULT: 0

QUERY: Now give it for "CO/C=C(/C(=O)OC)c1ccccc1COc1c(C)c(-c2ccc(C(C)(C)C)cc2)nn1C" too.
RESULT: 0

QUERY: "CO/C=C(/C(=O)OC)c1ccccc1COc1c(C)c(-c2ccc(C)cc2)nn1C" ?
RESULT: 0

* * *

System: Blumeria graminis f. sp. tritici
Assay: Antifungal activity against Blumeria graminis f. sp. tritici infected seven-day-old wheat seedlings assessed as disease control at 12.5 mg/l after 7 days relative to control
Format: functional
# Activity per entry
State the value, then name its unit.

See these solved cases before continuing.
CO/C=C(/C(=O)OC)c1ccccc1Oc1cc(Oc2ccccc2C#N)ncn1 ... 100%
CO/C=C(/C(=O)OC)c1ccccc1COc1cc(-c2ccc(C)c(C)c2)nn1C ... 100%
CO/C=C(/C(=O)OC)c1ccccc1COc1cc(-c2ccc(C)cc2)nn1C ... 35%
CO/C=C(/C(=O)OC)c1ccccc1COc1cc(-c2ccccc2OC)nn1C ... 100%
CO/C=C(/C(=O)OC)c1ccccc1COc1cc(-c2ccccc2Cl)nn1C ... 100%
CO/C=C(/C(=O)OC)c1ccccc1COc1c(C)c(-c2ccc(OC)cc2)nn1C ... 100%

QUERY: Any idea what Activity was measured for "CO/C=C(/C(=O)OC)c1ccccc1COc1c(C)c(-c2ccc(Cl)cc2)nn1C" ?
RESULT: 100%

QUERY: "CCc1ccc(-c2nn(C)c(OCc3ccccc3/C(=C\OC)C(=O)OC)c2C)cc1" ?
RESULT: 100%

QUERY: Entry "CO/C=C(/C(=O)OC)c1ccccc1COc1c(C)c(-c2cc(C)ccc2C)nn1C" please
RESULT: 50%

QUERY: Now try "CO/C=C(/C(=O)OC)c1ccccc1COc1cc(-c2ccc(OC)cc2)nn1C" .
RESULT: 65%

QUERY: Repeat with "CO/N=C(/C(=O)OC)c1ccccc1COc1ccccc1C"
RESULT: 100%

QUERY: Can you handle "CO/C=C(/C(=O)OC)c1ccccc1COc1cc(-c2ccccc2)nn1C" next?
RESULT: 0%

* * *

Tested on: Blumeria graminis f. sp. tritici
Test: Antifungal activity against Blumeria graminis f. sp. tritici infected seven-day-old wheat seedlings assessed as disease control at 1.56 mg/l after 7 days relative to control
Format: functional
Parameter Measured: Activity (%)
Reply numerically in %, unit not repeated.

Examples from the recorded data:
CO/C=C(/C(=O)OC)c1ccccc1COc1cc(-c2ccc(Cl)cc2)nn1C ... 0
CCc1ccc(-c2nn(C)c(OCc3ccccc3/C(=C\OC)C(=O)OC)c2C)cc1 ... 0
CO/C=C(/C(=O)OC)c1ccccc1COc1c(C)c(-c2ccc(C)c(C)c2)nn1C ... 70
CO/C=C(/C(=O)OC)c1ccccc1COc1cc(-c2ccccc2Cl)nn1C ... 40

QUERY: Any idea what Activity came out for "CO/C=C(/C(=O)OC)c1ccccc1COc1cc(-c2ccccc2)nn1C" on Blumeria graminis f. sp. tritici?
RESULT: 0

* * *

Test system: Blumeria graminis f. sp. tritici
Assay: Antifungal activity against Blumeria graminis f. sp. tritici infected seven-day-old wheat seedlings assessed as disease control at 1.56 mg/l after 7 days relative to control
Type: functional
Parameter Measured: Activity (%)
Number only, in %; omit the unit.

CO/N=C(/C(=O)OC)c1ccccc1COc1ccccc1C ... 100
CO/C=C(/C(=O)OC)c1ccccc1COc1cc(-c2ccc(C)cc2C)nn1C ... 80

QUERY: Which Activity is reported for this molecule? "CO/C=C(/C(=O)OC)c1ccccc1COc1cc(-c2ccc(Cl)cc2Cl)nn1C"
RESULT: 0

QUERY: What would you report for "CO/C=C(/C(=O)OC)c1ccccc1COc1cc(-c2ccc(Br)cc2)nn1C" ?
RESULT: 10

QUERY: What do you have for "CO/C=C(/C(=O)OC)c1ccccc1COc1c(C)c(-c2cc(C)ccc2C)nn1C" ?
RESULT: 0

QUERY: Entry to check: "CO/C=C(/C(=O)OC)c1ccccc1COc1c(C)c(-c2ccc(C)cc2)nn1C"
RESULT: 45

QUERY: // next record "CO/C=C(/C(=O)OC)c1ccccc1COc1cc(-c2ccc(C)c(C)c2)nn1C"
RESULT: 80
